Each entry below carries its recorded IC50.
- Tested on: BRM-dependent transcription (BRG1 mutant lung cancer cell line A549)
- EXPERIMENT DESCRIPTION: BRM-dependent transcription, MMTV luciferase reporter in BRG1 mutant A549 cells
- Type: cell-based
- MEASUREMENT CONTEXT: A549-MMTV luciferase reporter, dexamethasone induced, 6 hours, Table 11
MEASURE: IC50 (nM)

O=C(NCc1cc2nc(-c3ccc(OC(F)F)c(C4CC4)n3)ccc2cn1)c1cc(Cl)c2c(c1)S(=O)(=O)[C@@H](F)CCO2    12.4
CCOc1nc([C@H](F)CF)ccc1-c1ccc2cnc(CNC(=O)c3cc(C(F)F)c4c(c3)S(=O)(=O)[C@@H](F)COC4)cc2n1 [Compound 460]    10
C[C@@H]1CCN1c1cnc2c(-c3ccc4cnc(CNC(=O)c5cc(Cl)c6c(c5)S(=O)(=O)[C@@H](F)COC6)cc4n3)cccc2c1 [Compound 497]    12.4
CCOc1nc([C@H](F)CF)ccc1-c1ccc2cnc(CNC(=O)c3cc(Cl)c4c(c3)S(=O)(=O)[C@@H](F)COC4)cc2n1 [Compound 481]    10.2
CCOc1nc([C@@H](F)CF)ccc1-c1ccc2cnc(CNC(=O)c3cc(Br)c4c(c3)S(=O)(=O)[C@@H](F)COC4)cc2n1 [Compound 517]    20.4
CCOc1nc([C@H](F)CF)ccc1-c1ccc2cnc(CNC(=O)c3cc(Cl)c4c(c3)S(=O)(=O)[C@@H](F)COC4)cc2n1 [Compound 519]    22.6
C[C@@H]1CCN1c1cnc2c(-c3ccc4cnc(CNC(=O)c5cc(Cl)c6c(c5)S(=O)(=O)[C@@H](F)COC6)cc4n3)cccc2c1 [Compound 498]    5.9
CCOc1nc(C(C)(F)F)ccc1-c1ccc2cnc(CNC(=O)c3cc(F)c4c(c3)S(=O)(=O)[C@@H](F)COC4)cc2n1 [Compound 471]    8.2
C[C@@H]1CCN1c1cnc2c(-c3ccc4cnc(CNC(=O)c5cc(F)c6c(c5)S(=O)(=O)[C@@H](F)COC6)cc4n3)cccc2c1 [Compound 470]    4.1
CCOc1nc([C@@H](F)CF)ccc1-c1ccc2cnc(CNC(=O)c3cc(C(F)F)c4c(c3)S(=O)(=O)[C@@H](F)COC4)cc2n1 [Compound 515]    16.7
CCOc1nc([C@H](F)CF)ccc1-c1ccc2cnc(CNC(=O)c3cc(C(F)F)c4c(c3)S(=O)(=O)[C@@H](F)COC4)cc2n1 [Compound 518]    21
CCOc1nc(C(C)(F)F)ccc1-c1ccc2cnc(CNC(=O)c3cc(F)c4c(c3)S(=O)(=O)[C@@H](F)COC4)cc2n1 [Compound 509]    20.2

====

Reported Ratio (MDA-MMTV IC50 (μM) divided by A549-MMTV IC50 (μM)) values are given for each entry in this list.
- Test system: BRM-dependent transcription (BRG1 mutant lung cancer cell line A549)
- EXPERIMENT DESCRIPTION: BRM-dependent transcription, MMTV luciferase reporter in BRG1 mutant A549 cells
- Type: cell-based
- MEASUREMENT CONTEXT: MMTV luciferase reporter cell lines, selectivity BRG1/BRM, Table 11
MEASURE: Ratio (MDA-MMTV IC50 (μM) divided by A549-MMTV IC50 (μM))

COc1nc([C@@H](F)CF)ccc1-c1ccc2cnc(CNC(=O)c3cc(Cl)c4c(c3)S(=O)(=O)[C@@H](F)COC4)cc2n1 [Compound 381]    29.06
O=C(NCc1cc2nc(-c3ccnc(C4CC4)n3)ccc2cn1)c1cc(F)c2c(c1)S(=O)(=O)[C@@H](F)CCO2 [Compound 344]    25.42
Cc1cc(C(=O)NCc2cc3nc(N4CCOc5ccc(C(F)F)nc54)ccc3cn2)cc2c1OCC[C@H](F)S2(=O)=O [Compound 340]    26.04
O=C(NCc1cc2nc(-c3cccc(C4CC4)n3)ccc2cn1)c1cc(C(F)F)c2c(c1)S(=O)(=O)[C@@H](F)COC2 [Compound 429]    32.94
COc1nc([C@](C)(F)C(F)F)ccc1-c1ccc2cnc(CNC(=O)c3cc(F)c4c(c3)S(=O)(=O)[C@@H](F)CCOC4)cc2n1 [Compound 367]    17.70
[2H]C([2H])([2H])Oc1ccc(-c2ccc3cnc(CNC(=O)c4cc(Cl)c5c(c4)S(=O)(=O)[C@@H](F)COC5)cc3n2)nc1C1CC1 [Compound 523]    26.20
[2H]C([2H])([2H])C([2H])([2H])Oc1nc(C(F)F)ccc1-c1ccc2cnc(CNC(=O)c3cc(C(F)F)c4c(c3)S(=O)(=O)[C@@H](F)COC4)cc2n1 [Compound 446]    29.71
C[C@@H]1CN(c2cccc(-c3ccc4cnc(CNC(=O)c5cc(C6CC6)c6c(c5)S(=O)(=O)[C@@H](F)CCO6)cc4n3)n2)C[C@H](C)O1 [Compound 350]    25.08
[2H]C([2H])([2H])Oc1ccc(-c2ccc3cnc(CNC(=O)c4cc(C(F)F)c5c(c4)S(=O)(=O)[C@@H](F)COC5)cc3n2)nc1[C@H]1CC1(F)F [Compound 459]    27.87
[2H]C([2H])([2H])Oc1ccc(-c2ccc3cnc(CNC(=O)c4cc(Br)c5c(c4)S(=O)(=O)[C@@H](F)COC5)cc3n2)nc1C1CC1 [Compound 522]    29.68
O=C(NCc1cc2nc(N3CCOc4ccc(C(F)F)nc43)ccc2cn1)c1cc(Br)c2c(c1)S(=O)(=O)[C@@H](F)CCO2 [Compound 435]    25.82
CCOc1nc(C(F)F)ncc1-c1ccc2cnc(CNC(=O)c3cc(C(F)F)c4c(c3)S(=O)(=O)[C@@H](F)COC4)cc2n1 [Compound 510]    22.06

====

- TARGET ENTITY: BRM (Homo sapiens)
- Construct: made in house; host or cells: High Five insect cells
- Sequence (P51531 whole entry): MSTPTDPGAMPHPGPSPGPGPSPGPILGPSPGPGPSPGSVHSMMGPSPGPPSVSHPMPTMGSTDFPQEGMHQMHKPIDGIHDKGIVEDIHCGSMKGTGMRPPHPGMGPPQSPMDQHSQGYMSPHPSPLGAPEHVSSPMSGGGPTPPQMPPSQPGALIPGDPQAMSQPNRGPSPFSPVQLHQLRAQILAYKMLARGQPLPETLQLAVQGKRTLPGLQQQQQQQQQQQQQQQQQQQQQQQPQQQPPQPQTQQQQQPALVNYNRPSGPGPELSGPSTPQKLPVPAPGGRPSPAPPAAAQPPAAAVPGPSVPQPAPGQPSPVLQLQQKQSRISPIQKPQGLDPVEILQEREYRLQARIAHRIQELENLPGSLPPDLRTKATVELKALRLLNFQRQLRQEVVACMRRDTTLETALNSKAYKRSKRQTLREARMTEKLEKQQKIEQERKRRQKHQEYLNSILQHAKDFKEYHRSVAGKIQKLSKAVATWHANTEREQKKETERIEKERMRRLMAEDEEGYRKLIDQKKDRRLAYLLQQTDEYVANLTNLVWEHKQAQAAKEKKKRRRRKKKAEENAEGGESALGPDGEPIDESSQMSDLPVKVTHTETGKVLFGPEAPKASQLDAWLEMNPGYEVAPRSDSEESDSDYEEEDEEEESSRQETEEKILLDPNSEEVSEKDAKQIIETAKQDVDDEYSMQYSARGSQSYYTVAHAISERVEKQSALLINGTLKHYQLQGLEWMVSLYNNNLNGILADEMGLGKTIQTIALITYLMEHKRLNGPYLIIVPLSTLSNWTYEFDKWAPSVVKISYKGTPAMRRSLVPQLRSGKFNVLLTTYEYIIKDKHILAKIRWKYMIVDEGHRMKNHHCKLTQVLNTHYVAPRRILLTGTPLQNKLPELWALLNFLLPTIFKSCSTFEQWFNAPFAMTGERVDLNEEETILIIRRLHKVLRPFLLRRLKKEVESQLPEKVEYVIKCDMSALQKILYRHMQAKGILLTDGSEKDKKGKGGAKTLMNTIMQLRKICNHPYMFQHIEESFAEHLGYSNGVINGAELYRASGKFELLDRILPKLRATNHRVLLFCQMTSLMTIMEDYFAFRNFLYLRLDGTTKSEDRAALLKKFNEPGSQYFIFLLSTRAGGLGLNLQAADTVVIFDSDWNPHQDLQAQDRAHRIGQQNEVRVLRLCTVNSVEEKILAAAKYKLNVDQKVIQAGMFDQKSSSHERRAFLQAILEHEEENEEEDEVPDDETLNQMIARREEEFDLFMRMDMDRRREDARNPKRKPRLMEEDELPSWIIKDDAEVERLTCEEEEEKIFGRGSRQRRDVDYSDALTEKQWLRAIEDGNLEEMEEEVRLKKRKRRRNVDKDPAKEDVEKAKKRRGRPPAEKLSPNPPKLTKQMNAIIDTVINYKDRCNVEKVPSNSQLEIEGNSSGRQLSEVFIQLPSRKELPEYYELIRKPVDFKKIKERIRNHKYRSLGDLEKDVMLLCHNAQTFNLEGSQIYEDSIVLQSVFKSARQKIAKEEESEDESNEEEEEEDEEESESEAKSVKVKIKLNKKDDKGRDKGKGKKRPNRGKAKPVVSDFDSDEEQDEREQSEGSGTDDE
- EXPERIMENT DESCRIPTION: ATPase catalytic activity assay (ADP-Glo), BRM
- Assay type: biochemical
- MEASUREMENT CONTEXT: ATPase assay, selectivity BRG1/BRM, Table 10
As shown below, each of these compounds has a reported Ratio (BRG1 IC50 (μM) divided by BRM IC50 (μM)) value.
MEASURE: Ratio (BRG1 IC50 (μM) divided by BRM IC50 (μM))

O=C(NCc1cc2cc(-c3cccc(C4CC4)n3)ccc2cn1)c1cc(F)c2c(c1)S(=O)(=O)[C@@H](F)COC2 [Compound 118]    19.47
CCO[C@@H]1CCN(c2cccc(-c3ccc4cnc(CNC(=O)c5cc(F)c6c(c5)S(=O)(=O)[C@@H](F)COC6)cc4n3)n2)C1 [Compound 12]    11.63
O=C(NCc1cc2nc(N3CCOc4cc([C@@H]5CC5(F)F)cnc43)ccc2cn1)c1cc(F)c2c(c1)S(=O)(=O)[C@@H](F)COC2 [Compound 74]    9.59
O=C(NCc1cc2nc(N3CCOc4ccc([C@@H]5C[C@H]5F)nc43)ccc2cn1)c1cc(F)c2c(c1)S(=O)(=O)[C@@H](F)CCO2 [Compound 156]    23.13
Cc1cc(C(=O)NCc2cc3nc(-c4cccc(OC(F)F)n4)ccc3cn2)cc2c1COC[C@H](F)S2(=O)=O [Compound 206]    31.39
COc1cnc2c(c1)OCCN2c1ccc2cnc(CNC(=O)c3cc(F)c4c(c3)S(=O)(=O)[C@@H](F)CCO4)cc2n1 [Compound 71]    17.64

====

pIC50: −log10 of the molar value.
List of pIC50 tested on BRM (Homo sapiens).
MEASURE: pIC50

[2H]C([2H])([2H])Oc1nc(C(F)F)ccc1-c1ccc2cnc(CNC(=O)c3cc(F)c4c(c3)S(=O)(=O)[C@@H](F)CCO4)cc2n1 [Compound 135]    8.34
CC#Cc1ccc2c(n1)N(c1ccc3cnc(CNC(=O)c4cc(F)c5c(c4)S(=O)(=O)[C@@H](F)CCO5)cc3n1)CCO2 [Compound 37]    8.70
Cc1cc(C(=O)NCc2cc3nc(-c4cccc(N5C[C@@H](C)O[C@@H](C)C5)n4)ccc3cn2)cc2c1COC[C@H](F)S2(=O)=O [Compound 21]    8.80
COc1cnc2c(c1)CCCN2c1ccc2cnc(CNC(=O)c3cc(F)c4c(c3)S(=O)(=O)[C@@H](F)CCO4)cc2n1 [Compound 133]    8.35
COc1nc([C@H](F)CF)ccc1-c1ccc2cnc(CNC(=O)c3cc(F)c4c(c3)S(=O)(=O)[C@@H](F)COC4)cc2n1 [Compound 44]    8.68
C[C@@H]1CCN1c1cnc2c(c1)CCCN2c1ccc2cnc(CNC(=O)c3cc(F)c4c(c3)S(=O)(=O)[C@@H](F)CCO4)cc2n1 [Compound 236]    8.13

====

pIC50: −log10 of the molar value.
Measured pIC50 on UniProtKB P51531 follows.
MEASURE: pIC50

COc1nc([C@H](C)F)ccc1-c1ccc2cnc(CNC(=O)c3cc(Cl)c4c(c3)S(=O)(=O)[C@@H](F)COC4)cc2n1    8.25
O=C(NCc1cc2nc(N3CCCc4c(OC5CC5)ccnc43)ccc2cn1)c1cc(F)c2c(c1)S(=O)(=O)[C@@H](F)CCO2    8.82
O=C(NCc1cc2cc(N3CCOc4cc(C5CC5)cnc43)ccc2cn1)c1cc(F)c2c(c1)S(=O)(=O)[C@@H](F)CCO2    8.33
CO[C@H]1CN(c2cccc(-c3ccc4cnc(CNC(=O)c5cc(F)c6c(c5)S(=O)(=O)[C@@H](F)CCO6)cc4n3)n2)C[C@@H]1C    8.57
O=C(NCc1cc2nc(N3CCOc4cc(C56CC(C5)C6)cnc43)ccc2cn1)c1cc(F)c2c(c1)S(=O)(=O)[C@@H](F)COC2    8.32
O=C(NCc1cc2nc(N3CCOc4ccc([C@H]5C[C@@H]5C(F)F)nc43)ccc2cn1)c1cc(F)c2c(c1)S(=O)(=O)[C@@H](F)COC2    8.77
